B1: NEUROD6 (parent)
chain: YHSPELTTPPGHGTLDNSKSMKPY

# Variants of: B1
# Measurement protocol: protein stability index of a GFP-peptide fusion (GPS, HEK-293T) (PSI 1-6); higher = more stable;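 note: lentivirally expressed fusions sorted by FACS into six bins by GFP to DsRed ratio, PSI derived from sequencing read proportions per bin multiplied by bin number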
# Measurement conditions: c terminus: a fixed tail appended
Listing of entries alongside the reported protein stability index.
Just the number, please, no unit attached.

See these solved cases before continuing.
1. P23R :: 1.99
2. N17G :: 2.68
3. N17S :: 2.3

INPUT: # protein stability index lookup, item "Y1Q"
OUTPUT: 5.06
